Origin of measurements: patent US8003572B2

# Tested on: MCF-7/ADR (adramycin resistance) cell line
# procedure_details: MTS cell proliferation assay in MCF-7/ADR
# Type: cell-based
# experimental_parameters: Homo sapiens, NCI/ADR-RES; breast cancer cell line MCF-7Adr
measured_metric: IC50 (nM)
Note: unit nM is implicit; provide only the numeric part.

The recorded IC50 for entry NCC1CCNCC1 [HBS01, 4-(Aminomethyl)piperidine] equals 30

* * *

# System: MCF-7/ADR (adramycin resistance) cell line
# procedure_details: MTS cell proliferation assay in MCF-7/ADR
# Assay type: cell-based
# experimental_parameters: Homo sapiens, NCI/ADR-RES; MCF-7Adr, treated for 96 hours, MTS
measured_metric: pIC50
# pIC50: negative log10 of molar concentration; output just the value

The recorded pIC50 for entry `NCC1CCNCC1` equals 7.52

* * *

# Test system: C85 colorectal adenocarcinoma cells
# procedure_details: Clonogenic assay with C85 colorectal adenocarcinoma cells
# Format: cell-based, human
# experimental_parameters: human colon cancer cell line C85
measured_metric: IC50 (nM)
Note: unit nM is implicit; provide only the numeric part.

The recorded IC50 for entry NCC1CCNCC1 [HBS01, 4-(Aminomethyl)piperidine] equals 30

* * *

# procedure_details: Maximum tolerated dose in mice
# experimental_parameters: nude, mouse, in vivo
measured_metric: MTD (mg/kg)
Note: unit mg/kg is implicit; provide only the numeric part.

The recorded MTD for entry `NCC1CCNCC1` equals 1400

* * *

# Tested on: C85 colorectal adenocarcinoma cells
# procedure_details: Clonogenic assay with C85 colorectal adenocarcinoma cells
# Type: cell-based, human
# experimental_parameters: C85 cells, colonies counted 96 hours after treatment
measured_metric: pIC50
# pIC50: negative log10 of molar concentration; output just the value

Measured on C85 colorectal adenocarcinoma cells, Nc1ccc(Nc2ccccc2)cc1 [Compound 05RB, N-Phenyl-4-phenylenediamine] has a documented pIC50 of 4.43

* * *

# Test system: C85 colorectal adenocarcinoma cells
# procedure_details: Clonogenic assay with C85 colorectal adenocarcinoma cells
# Format: cell-based, human
# experimental_parameters: Homo sapiens; C85 cells, colonies counted 96 hours after treatment
pIC50: −log10 of the molar value.
Use 4 as the dividing line for pIC50, with the line itself on the true side and lower values as false.

compound: Oc1cc(Cl)cnc1O [Compound 0FZK, 5-chloro-2,3-dihydroxypyridine]
answer_label: false
//
compound: CC(=O)Nc1ccccc1O [Compound 01LX, 2-Acetamidophenol]
answer_label: false
//
compound: Nc1ccc2cn[nH]c2c1
answer_label: true
//
compound: CC1CN(c2ccccc2)NC1=O (centres unmarked)
answer_label: true

Kindly review the next compound as well.
Please check the record NC(=O)c1ccc([N+](=O)[O-])cc1Cl [Compound 0BWP, 2-Chloro-4-nitrobenzamide] and state if its pIC50 is at or above 4. false
